# Tested on: NCI/ADR-RES
# experimentDescription: NCI tumour cell line growth inhibition, 48 h
Activity calls are given as the source filed them. Rule as the data show it: active = GI50 up to about 1.1 µM and inactive = higher.
Choose the fitting class; nothing outside active, inactive is accepted.

Example cases with answers are listed next.
Oc1cc(-c2cccc(C(F)(F)F)c2)nc2cc3c(cc12)OCO3 | active
COC(=O)CC1c2ccccc2N2C(=O)Cc3c([nH]c4ccccc34)C12 (stereo unspecified) | inactive
COC(=O)[C@H](CCSC)NC(=O)c1ccc(CNC(=O)/C=C/c2cccc(Oc3ccccc3)c2)cc1 | inactive
NCCNCC(O)CO (stereo unspecified) | inactive

Now examine the next entry.
-- ask Which outcome was entered for the compound O=C(OCC1CCCN2CCCCC12)c1ccncc1 (stereo unspecified) in this test?
-- reply inactive

====

# System: Malme-3M
# experimentDescription: NCI tumour cell line growth inhibition, 48 h
Activity calls are given as the source filed them. No stated cut-off is given here; in the data, active = GI50 up to about 1.1 µM and inactive = higher.
Choose the fitting class; nothing outside active, inactive is accepted.

CC1(C)CC(=O)c2c(N)n[nH]c2C1 | inactive
Oc1cc(-c2cccc(C(F)(F)F)c2)nc2cc3c(cc12)OCO3 | active
CSc1c(C#N)c(=O)[nH]c2[nH]nc(C)c12 | inactive

-- ask Which outcome was entered for the molecule C[n+]1c(-c2ccc(/C=N/Nc3ccnc(N/N=C/c4ccc(-c5cn6ccsc6[n+]5C)cc4)n3)cc2)cn2ccsc21 in this test?
-- reply inactive

-- ask Which outcome was entered for the molecule NC1CCCCC1NCCNC1CCCCC1N (stereo unspecified) in this test?
-- reply inactive

-- ask Which outcome was entered for the molecule CSc1cc(Cl)c(C)cc1S(=O)(=O)NC(=O)NNc1ccc(Cl)cc1 in this test?
-- reply inactive

-- ask Which outcome was entered for the molecule CCOC(=O)/C(C(=O)c1ccccc1)=C1\N[C@H](C(=O)OCC)CS1 in this test?
-- reply inactive

-- ask Which outcome was entered for the molecule CN(C)P(=O)(Oc1ccc(CC(NC(=O)OCc2ccccc2)C(=O)OCc2ccccc2)cc1)N(C)C (stereo unspecified) in this test?
-- reply inactive

====

# Test system: MCF7
# experimentDescription: NCI tumour cell line growth inhibition, 48 h
The source made the active and inactive calls. Cut-off read from the data, not from the text of the source: active = GI50 up to about 1.1 µM and inactive = higher.
Choose the fitting class; nothing outside active, inactive is accepted.

Example cases with answers are listed next.
CO/N=C(\C(=O)N(C)n1cnnc1)c1csc(NC(c2ccccc2)(c2ccccc2)c2ccccc2)n1 | inactive
Cc1cc(N(CCOS(C)(=O)=O)CCOS(C)(=O)=O)ccc1C=O | inactive
CCOC(=O)c1c(SC(=O)/C=C/c2ccccc2)n(-c2ccccc2)c(=S)n(-c2ccccc2)c1=O | inactive
C=C(C(=O)O[C@H]1C/C(C)=C/CC/C(CO)=C/[C@H]2C(=O)OC(=C)[C@H]12)C(O)CO (some centres not stated) | inactive
Nc1nc(CCl)nc(N2CCOCC2)n1 | inactive
CCCN(CCC)C1CCc2c(ccc3cc[nH]c23)C1 (configuration not stated) | inactive
C[C@H]1CC[C@@]2(OC1)O[C@H]1C[C@H]3[C@@H]4CC[C@@H]5C[C@@H](OC6OC(CO)C(O)C(O)C6OC6OC(CO)C(O)C(O)C6O)CC[C@]5(C)[C@H]4CC[C@]3(C)[C@H]1[C@@H]2C (some centres not stated) | inactive
O=[N+]([O-])c1cccc(-c2ncc3c(n2)-c2ccccc2C3)c1 | inactive
O=C1C(Cl)=C(N(C(=O)c2ccccc2)C(=O)c2ccccc2)C(=O)c2ccccc21 | inactive
COc1ccc(C)cc1NC(=S)C#N | inactive

-- ask Which outcome was entered for the molecule C/C(=N\NC(=S)NC(C)(C)C)c1nc2cccnc2[nH]1 in this test?
-- reply active

-- ask Which outcome was entered for the molecule COC(=O)CNC(=O)c1cc(C)cc2c1Oc1c(cc(C)cc1C(=O)NCC(=O)OC)S2 in this test?
-- reply inactive

-- ask Which outcome was entered for the molecule COc1ccc2[nH]c(CCNC(=O)c3cc([N+](=O)[O-])cc([N+](=O)[O-])c3)cc2c1 in this test?
-- reply inactive

-- ask Which outcome was entered for the molecule CCO/C=N/NC(=O)CSc1nc2ccc(I)cc2c(=O)n1Cc1ccccc1 in this test?
-- reply inactive

-- ask Which outcome was entered for the molecule C/C(=N\Nc1ccc([N+](=O)[O-])cc1[N+](=O)[O-])c1ccc2ccccc2n1 in this test?
-- reply inactive

-- ask Which outcome was entered for the molecule CN(C(=O)c1ccncc1)c1ccccc1 in this test?
-- reply inactive

-- ask Which outcome was entered for the molecule CC/C(Cl)=N\OC(=O)Nc1ccc(C#N)cc1 in this test?
-- reply inactive

-- ask Which outcome was entered for the molecule CCOC(=O)C(C)c1nc2ccc(C(F)(F)F)cc2[nH]c1=O (configuration not stated) in this test?
-- reply inactive

-- ask Which outcome was entered for the molecule Nc1c(S(=O)(=O)O)cc2cc(S(=O)(=O)O)ccc2c1/N=N/c1ccc(-c2ccc(/N=N/c3c(N)c(S(=O)(=O)O)cc4cc(S(=O)(=O)O)ccc34)c(S(=O)(=O)O)c2)cc1 in this test?
-- reply inactive

-- ask Which outcome was entered for the molecule CCOC(=O)P(=O)(O)c1ccc(N(C)Cc2ccccc2)cc1 in this test?
-- reply inactive
